tested on: K24384-001-R-PDC complex spheroid viability; experiment: Anticancer human tumor K24384-001-R-PDC patient-derived pancreatic adenocarcinoma cell line growth inhibition; conditions: second compound 1 µM; first compound 3.16 µM; active compounds read low
observed-property: viability, T/C (%)
Kindly answer with a numeric value in %, unit omitted.

Ask | # lookup: viability, T/C of CC1COCCN1c1cc(C2(S(C)(=N)=O)CC2)nc(-c2ccnc3[nH]ccc23)n1 (centres undefined) + NC1CC1c1ccc(-c2cccc(O)c2)cc1
Reply | 29.1

Ask | # lookup: viability, T/C of CC1(C)CCC(CN2CCN(c3ccc(C(=O)NS(=O)(=O)c4ccc(NCC5CCOCC5)c([N+](=O)[O-])c4)c(Oc4cnc5[nH]ccc5c4)c3)CC2)=C(c2ccc(Cl)cc2)C1 + NC1CCC(NC2CC2c2ccccc2)CC1
Reply | 37.6

Ask | # lookup: viability, T/C of CC(C)c1c(-c2ccccc2)nc2c(C#N)c[nH]n2c1=O + NC1CCC(NC2CC2c2ccccc2)CC1
Reply | 75

Ask | # lookup: viability, T/C of COc1ccc([C@@H](O)c2cc(-c3ncnc4cc(N5CCOCC5)ccc34)c(F)cc2Cl)nn1 + NC1CCC(NC2CC2c2ccccc2)CC1
Reply | 28.4

---

system: K24384-001-R-PDC complex spheroid viability; experiment: Anticancer human tumor K24384-001-R-PDC cell line growth inhibition; settings: second compound 3.16 µM; first compound 0.1 µM; active compounds read low;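 note: spheroids exposed to agents for seven days before luminescence viability reading; 100% = DMSO vehicle control viability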
observed-property: viability, T/C (%)
Kindly answer with a numeric value in %, unit omitted.

Ask | Lab note: need viability, T/C with K24384-001-R-PDC complex spheroid viability for entry Cn1ncnc1C1c2n[nH]c(=O)c3cc(F)cc(c23)NC1c1ccc(F)cc1 (configuration not stated) + NC1CC1c1ccc(-c2cccc(O)c2)cc1 , please look it up.
Reply | 75.8

Ask | Lab note: need viability, T/C with K24384-001-R-PDC complex spheroid viability for entry CC1COCCN1c1cc(-c2ccnn2C)c2ccnc(-c3ccn[nH]3)c2n1 (configuration not stated) + NC1CCC(NC2CC2c2ccccc2)CC1 , please look it up.
Reply | 42

Ask | Lab note: need viability, T/C with K24384-001-R-PDC complex spheroid viability for entry CC(C)CC(NC(=O)C(Cc1ccccc1)NC(=O)c1cnccn1)B(O)O (configuration not stated) + NC1CCC(NC2CC2c2ccccc2)CC1 , please look it up.
Reply | 0.18

Ask | Lab note: need viability, T/C with K24384-001-R-PDC complex spheroid viability for entry CC(C)CC(NC(=O)C(Cc1ccccc1)NC(=O)c1cnccn1)B(O)O (configuration not stated) + NC1CC1c1ccc(-c2cccc(O)c2)cc1 , please look it up.
Reply | 0.22

Ask | Lab note: need viability, T/C with K24384-001-R-PDC complex spheroid viability for entry COc1ccc([C@@H](O)c2cc(-c3ncnc4cc(N5CCOCC5)ccc34)c(F)cc2Cl)nn1 + NC1CCC(NC2CC2c2ccccc2)CC1 , please look it up.
Reply | 102

Ask | Lab note: need viability, T/C with K24384-001-R-PDC complex spheroid viability for entry Cn1ncnc1C1c2n[nH]c(=O)c3cc(F)cc(c23)NC1c1ccc(F)cc1 (configuration not stated) + NC1CCC(NC2CC2c2ccccc2)CC1 , please look it up.
Reply | 82.1

Ask | Lab note: need viability, T/C with K24384-001-R-PDC complex spheroid viability for entry O=C(c1cc(Cc2n[nH]c(=O)c3ccccc23)ccc1F)N1CCN(C(=O)C2CC2)CC1 + NC1CCC(NC2CC2c2ccccc2)CC1 , please look it up.
Reply | 81.8

---

test system: K24384-001-R-PDC complex spheroid viability; assay: Anticancer human tumor K24384-001-R-PDC cell line growth inhibition; details: second compound 10 µM; first compound 0.3 µM; active = viability on the fitted dose curve at most 10% of control; inactive = the rest;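 note: spheroids exposed to agents for seven days before luminescence viability reading; 100% = DMSO vehicle control viability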
The reply should be one of these categories: active, inactive

Ask | What did the test return for CCN(c1cc(-c2ccc(CN3CCOCC3)cc2)cc(C(=O)NCc2c(C)cc(C)[nH]c2=O)c1C)C1CCOCC1 + NC1CC1c1ccc(-c2cccc(O)c2)cc1 ?
Reply | inactive

Ask | What did the test return for CCN(c1cc(-c2ccc(CN3CCOCC3)cc2)cc(C(=O)NCc2c(C)cc(C)[nH]c2=O)c1C)C1CCOCC1 + NC1CCC(NC2CC2c2ccccc2)CC1 ?
Reply | inactive

Ask | What did the test return for Nc1ncn(C2CC(O)C(CO)S2)c(=O)n1 (configuration not stated) + NC1CCC(NC2CC2c2ccccc2)CC1 ?
Reply | inactive

Ask | What did the test return for Nc1ccn(C2OC(CO)C(O)C2(F)F)c(=O)n1 (configuration not stated) + NC1CC1c1ccc(-c2cccc(O)c2)cc1 ?
Reply | inactive

Ask | What did the test return for COc1cc(C2c3cc4c(cc3C(OC3OC5COC(C)OC5C(O)C3O)C3COC(=O)C23)OCO4)cc(OC)c1O (configuration not stated) + NC1CC1c1ccc(-c2cccc(O)c2)cc1 ?
Reply | inactive

Ask | What did the test return for NS(=O)(=O)OCC1CC(n2ccc3c(NC4CCc5ccccc54)ncnc32)CC1O (configuration not stated) + NC1CC1c1ccc(-c2cccc(O)c2)cc1 ?
Reply | inactive

Ask | What did the test return for Nc1ccn(C2OC(CO)C(O)C2(F)F)c(=O)n1 (configuration not stated) + NC1CCC(NC2CC2c2ccccc2)CC1 ?
Reply | inactive

Ask | What did the test return for CCc1c2c(nc3ccc(O)cc13)-c1cc3c(c(=O)n1C2)COC(=O)[C@]3(O)CC + NC1CCC(NC2CC2c2ccccc2)CC1 ?
Reply | active

Ask | What did the test return for NS(=O)(=O)OCC1CC(n2ccc3c(NC4CCc5ccccc54)ncnc32)CC1O (configuration not stated) + NC1CCC(NC2CC2c2ccccc2)CC1 ?
Reply | inactive

Ask | What did the test return for CCc1c2c(nc3ccc(O)cc13)-c1cc3c(c(=O)n1C2)COC(=O)[C@]3(O)CC + NC1CC1c1ccc(-c2cccc(O)c2)cc1 ?
Reply | active

Ask | What did the test return for O=C(C=Cc1cccc(S(=O)(=O)Nc2ccccc2)c1)NO + NC1CC1c1ccc(-c2cccc(O)c2)cc1 ?
Reply | inactive

Ask | What did the test return for Nc1ccccc1NC(=O)c1ccc(CNC(=O)OCc2cccnc2)cc1 + NC1CC1c1ccc(-c2cccc(O)c2)cc1 ?
Reply | inactive

---

test system: K24384-001-R-PDC complex spheroid viability; test: Anticancer human tumor K24384-001-R-PDC cell line growth inhibition; details: second compound 10 µM; first compound 0.01 µM; active compounds read low;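 note: spheroids exposed to agents for seven days before luminescence viability reading; 100% = DMSO vehicle control viability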
Please respond with reported viability, T/C for every item in the list.
Kindly answer with a numeric value in %, unit omitted.

Ask | # lookup: viability, T/C of O=C(C=Cn1cnc(-c2cc(C(F)(F)F)cc(C(F)(F)F)c2)n1)NNc1cnccn1 + NC1CC1c1ccc(-c2cccc(O)c2)cc1
Reply | 81.9

Ask | # lookup: viability, T/C of CC1COCCN1c1cc(-c2ccnn2C)c2ccnc(-c3ccn[nH]3)c2n1 (centres undefined) + NC1CC1c1ccc(-c2cccc(O)c2)cc1
Reply | 60.1

Ask | # lookup: viability, T/C of CC1COCCN1c1cc(-c2ccnn2C)c2ccnc(-c3ccn[nH]3)c2n1 (centres undefined) + NC1CCC(NC2CC2c2ccccc2)CC1
Reply | 54.9

Ask | # lookup: viability, T/C of COc1cc(Nc2ncc3c(n2)-c2ccc(Cl)cc2C(c2c(F)cccc2OC)=NC3)ccc1C(=O)O + NC1CCC(NC2CC2c2ccccc2)CC1
Reply | 84.1

---

System: K24384-001-R-PDC complex spheroid viability
Experiment: Anticancer human tumor K24384-001-R-PDC cell line growth inhibition;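 note: spheroids exposed to agents for seven days before luminescence viability reading; 100% = DMSO vehicle control viability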
Details: second compound 0.1 µM; first compound 0.1 µM; active compounds read low
Description: Multicellular complex tumor spheroid response to LSD1 Inhibitor Iadademstat in combination with a variety of drugs and investigational agents in selected tumor cell lines The current study was undertaken to assess response to LSD1 inhibitors in combination with standard-of-care drugs and investigational agents in solid tumor complex spheroid models as well as in the K-562 leukemia. […] Compounds. […] If the clinical Cmax for an agent had not been determined, the highest concentration tested was 10 microM. […]
Bucketed by reported viability, T/C, buckets being lower level: < 70%; middle level: ≥ 70% and < 80%; upper level: ≥ 80%

Ask | Where would CC1COCCN1c1cc(C2(S(C)(=N)=O)CC2)nc(-c2ccnc3[nH]ccc23)n1 (stereo not drawn) + NC1CC1c1ccc(-c2cccc(O)c2)cc1 land among the classes by reported viability, T/C?
Reply | upper level

Ask | Where would CC1COCCN1c1cc(-c2ccnn2C)c2ccnc(-c3ccn[nH]3)c2n1 (stereo not drawn) + NC1CC1c1ccc(-c2cccc(O)c2)cc1 land among the classes by reported viability, T/C?
Reply | lower level

Ask | Where would CC1(C)CCC(CN2CCN(c3ccc(C(=O)NS(=O)(=O)c4ccc(NCC5CCOCC5)c([N+](=O)[O-])c4)c(Oc4cnc5[nH]ccc5c4)c3)CC2)=C(c2ccc(Cl)cc2)C1 + NC1CCC(NC2CC2c2ccccc2)CC1 land among the classes by reported viability, T/C?
Reply | upper level

Ask | Where would CC1COCCN1c1cc(-c2ccnn2C)c2ccnc(-c3ccn[nH]3)c2n1 (stereo not drawn) + NC1CCC(NC2CC2c2ccccc2)CC1 land among the classes by reported viability, T/C?
Reply | lower level

Ask | Where would Cn1ncnc1C1c2n[nH]c(=O)c3cc(F)cc(c23)NC1c1ccc(F)cc1 (stereo not drawn) + NC1CCC(NC2CC2c2ccccc2)CC1 land among the classes by reported viability, T/C?
Reply | middle level

Ask | Where would O=C(c1cc(Cc2n[nH]c(=O)c3ccccc23)ccc1F)N1CCN(C(=O)C2CC2)CC1 + NC1CC1c1ccc(-c2cccc(O)c2)cc1 land among the classes by reported viability, T/C?
Reply | middle level

Ask | Where would COc1ccc([C@@H](O)c2cc(-c3ncnc4cc(N5CCOCC5)ccc34)c(F)cc2Cl)nn1 + NC1CCC(NC2CC2c2ccccc2)CC1 land among the classes by reported viability, T/C?
Reply | upper level

Ask | Where would CC(C)CC(NC(=O)C(Cc1ccccc1)NC(=O)c1cnccn1)B(O)O (stereo not drawn) + NC1CC1c1ccc(-c2cccc(O)c2)cc1 land among the classes by reported viability, T/C?
Reply | lower level

Ask | Where would CC1(C)CCC(CN2CCN(c3ccc(C(=O)NS(=O)(=O)c4ccc(NCC5CCOCC5)c([N+](=O)[O-])c4)c(Oc4cnc5[nH]ccc5c4)c3)CC2)=C(c2ccc(Cl)cc2)C1 + NC1CC1c1ccc(-c2cccc(O)c2)cc1 land among the classes by reported viability, T/C?
Reply | upper level

Ask | Where would O=C(C=Cn1cnc(-c2cc(C(F)(F)F)cc(C(F)(F)F)c2)n1)NNc1cnccn1 + NC1CC1c1ccc(-c2cccc(O)c2)cc1 land among the classes by reported viability, T/C?
Reply | lower level

Ask | Where would CC(C)c1c(-c2ccccc2)nc2c(C#N)c[nH]n2c1=O + NC1CC1c1ccc(-c2cccc(O)c2)cc1 land among the classes by reported viability, T/C?
Reply | upper level
